Below, each entry is listed alongside its reported Population Apoptotic (%).
# System: HEK-293T
# Assay overview: Multiplex assay against HEK293T
# Type: toxicity, cell-based
# Condition context: human, 12 h, 10 µM, compound concentration 10 uM, replicate 1
Test readout: Population Apoptotic (%)

Compound: Cc1ccc2nc(NCCN)c3ncc(C)n3c2c1.O=C(O)C(F)(F)F.O=C(O)C(F)(F)F
Result: 25%

Compound: CN1CCC(=C2c3ccccc3CC(=O)c3sccc32)CC1.O=C(O)/C=C/C(=O)O [KETOTIFEN FUMARATE]
Result: 71%

Compound: COc1ccc(S(=O)(=O)N(CCO)c2ccccc2CN(C)C/C=C/c2ccc(Cl)cc2)cc1.O=P(O)(O)O
Result: 14%

Compound: O=C1N/C(=N/c2ccccc2F)S/C1=C\c1ccc(C(=O)O)cc1
Result: 36%

Compound: COc1cc(N2CCN(C)CC2)ccc1Nc1ncc2c(n1)N(C)c1ccccc1C(=O)N2C
Result: 62%

Compound: COCC(=O)NC/C=C/c1ccc2ncnc(Nc3ccc(Oc4ccc(C)nc4)c(C)c3)c2c1 [CP-724714]
Result: 66%

Compound: COc1ccc(-c2ccc3c(N4CCOCC4)nc(N4C[C@@H](C)O[C@@H](C)C4)nc3n2)cc1CO [Ku-0063794]
Result: 41%

Compound: CCn1c(=O)c(-c2ccc(-c3cncs3)cc2Cl)cc2cnc(Nc3ccc(N4CCN(C)CC4)cc3)nc21
Result: 52%
